For each record, write down the corresponding EC50 CreLuc hNPY2R 100% hP.
# tested.on: T1, human neuropeptide Y2 receptor (human, UniProt P49146 1-381)
# T1 sequence (looked up): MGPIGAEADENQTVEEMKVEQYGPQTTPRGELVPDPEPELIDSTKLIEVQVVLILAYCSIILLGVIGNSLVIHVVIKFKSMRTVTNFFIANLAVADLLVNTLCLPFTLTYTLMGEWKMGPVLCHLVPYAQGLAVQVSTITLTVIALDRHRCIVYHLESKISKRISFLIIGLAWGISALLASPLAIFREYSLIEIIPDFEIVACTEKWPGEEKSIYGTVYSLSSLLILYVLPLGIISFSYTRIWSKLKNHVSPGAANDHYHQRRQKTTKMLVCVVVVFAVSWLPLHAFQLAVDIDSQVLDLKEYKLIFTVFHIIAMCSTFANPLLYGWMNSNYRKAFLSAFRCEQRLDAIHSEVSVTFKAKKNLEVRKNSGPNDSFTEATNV
# experiment.description: cell-based or functional assay
Starred links: 1 amine or outer side, 2 acyl side, 3 side chain; linkers in the order of their positions; H or OH if unused. Non-standard residues stand in square brackets, D forms with d. Groups on a side chain read outwards from the residue. No end group written: not given here. *: point of attachment. C18 diacid = O=C(O)CCCCCCCCCCCCCCCCC(=O)*; γGlu = O=C(O)[C@H](CCC(=O)[*:2])N[*:1]; εLys = N[C@@H](CCCCN[*:1])C(=O)[*:2]; AEEA = NCCOCCOCC(=O)O; Aib = CC(C)(N)C(=O)O
Write the number in µM without appending the unit.

Consider the binder Y[Aib]EGTFTSDLSI[Aib]LEKQAQ[Aib]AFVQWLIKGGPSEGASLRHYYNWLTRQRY-NH2 (not fully specified (residue 28)) [Compound 113] and give its measured EC50 CreLuc hNPY2R 100% hP.
0.0499

Quick check: EC50 CreLuc hNPY2R 100% hP of Y[Aib]EGTFTSDYSI[Aib]LEKQAQ[Aib]EFVQWLIK([AEEA-AEEA-Glu-Glu-Glu-C18 diacid])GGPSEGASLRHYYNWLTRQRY-NH2 [Compound 157] ?
0.0869

For the binder Y[Aib]EGTFTSDYSI[Aib]LEKQAQ[Aib]AFVQWLIK([εLys-γGlu-γGlu-γGlu-γGlu-γGlu-C18 diacid])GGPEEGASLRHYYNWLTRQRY-NH2 [Compound 143] , what EC50 CreLuc hNPY2R 100% hP is on record?
0.0423

Reported EC50 CreLuc hNPY2R 100% hP for Y[Aib]EGTFTSDYSI[Aib]LEKQAQ[Aib]EFVQWLIK([AEEA-AEEA-γGlu-γGlu-γGlu-C18 diacid])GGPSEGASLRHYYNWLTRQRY-NH2 [Compound 160] : what is it?
0.0219
